experiment: Cellular viability qHTS for adrenocortical cancer (ACC) cell line SW-13 (AID 1963989); details: SW-13 ACC cells viability, CellTiter-Glo, 48 h; note: potency is the fitted concentration of half-maximal effect; nearly all actives have a fitted effect of over 65% in size
Records with an inconclusive call do not appear. The source made the active and inactive calls. Calls come from the whole dose curve; as a rule, active = well fitted cell-killing curve with a large enough effect; inconclusive = small, poorly fitted or top-dose-only effect; inactive = flat fitted curve, though single readings scatter.
Below, each entry is listed alongside its reported Potency.

GET /value?item= N#CC(c1ccnc(NCCc2cccnc2)n1)c1nc2ccccc2s1 (stereo unspecified) &field=Potency returns 25.1 µM (active)

The recorded Potency for entry CCN(CC)CCCCNc1ncc2cc(-c3cc(OC)cc(OC)c3)c(NC(=O)NC(C)(C)C)nc2n1 equals 28.2 µM (active)

Per the record, Cn1c(NC[C@@H](N)Cc2ccccc2)nc(-c2ccncc2)c(-c2ccc3ccccc3c2)c1=O has Potency of 28.2 µM (active)

Further cases:
For record COc1cc(NS(C)(=O)=O)ccc1Nc1c2ccccc2nc2ccccc12 the listed Potency is 5.62 µM (active)

Form field Potency, entry NS(=O)(=O)c1ccc(Nc2nc(OCC3CCCCC3)c3[nH]cnc3n2)cc1 : 22.4 µM (active)

Potency reported for this molecule CC(C)(C)c1ccc(C(=O)CCCN2CCC(OC(c3ccccc3)c3ccccc3)CC2)cc1 : 13 µM (active)

According to the records, this molecule C=C1C(=O)O[C@H]2C[C@H](C)C(/C=C/C(C)=O)=CC[C@H]12 displays Potency of 15.8 µM (active)

Reported Potency ( CN[C@H]1CCc2cc(OC)c(OC)c(OC)c2-c2ccc(OC)c(=O)cc21 ) = 0.1 µM (active)
